Can you tell me logp [c] for the items I'm about to list?
Assay Conditions: pH 7.8

input: // query logp [c] value for entry Clc1ccc(Nc2ncc(Cl)c(NC3CC3)n2)s1
output: 3.54[c];

input: What about COCC(C)NC(=O)c1cc(Nc2ncc(Cl)c(NC3CC3)n2)cs1 (stereo not shown) ?
output: 2.22 [c];

input: Follow-up entry: COCCNC(=O)c1cc(Nc2ncc(Cl)c(NC3CC3)n2)cs1
output: 2.01[c];

input: Also CSc1ccc(Nc2ncc(Cl)c(NC3CC3)n2)s1 ?
output: 3.36[c];

input: Then Cc1ccc(Nc2ncc(Br)c(NC3CC3)n2)s1 ?
output: 3.35[c];

input: What about CC(C)Nc1nc(Nc2ccsc2)ncc1Cl ?
output: 3.28[c];

input: Please give the result for Clc1cnc(Nc2ccsc2)nc1NCC1CC1 too.
output: 3.31[c];

input: Now try O=C(c1cc(Nc2ncc(Cl)c(NC3CC3)n2)cs1)N1CCOCC1 .
output: 2.09[c];

input: And what about the compound C=CCNC(=O)c1cc(Nc2ncc(Cl)c(NC3CC3)n2)cs1 ?
output: 2.28[c]

input: // next record CSc1ccc(Nc2ncc(Br)c(NC3CC3)n2)s1
output: 3.53[c];
